From: patent US20240254138A1

Below, each entry is listed alongside its reported kinact.
target: CDK7/cyclinH/MAT1 trimeric complex (Homo sapiens); experiment: In vitro CDK7 assay, potency of irreversible covalent inhibitors (kinact/KI), coupled PK/LDH ADP readout at 340 nm; conditions: read-out: CDK7 (20 nM enz.) (kinact, s^−1), 20 nM enzyme
Sequence (P50613 whole entry): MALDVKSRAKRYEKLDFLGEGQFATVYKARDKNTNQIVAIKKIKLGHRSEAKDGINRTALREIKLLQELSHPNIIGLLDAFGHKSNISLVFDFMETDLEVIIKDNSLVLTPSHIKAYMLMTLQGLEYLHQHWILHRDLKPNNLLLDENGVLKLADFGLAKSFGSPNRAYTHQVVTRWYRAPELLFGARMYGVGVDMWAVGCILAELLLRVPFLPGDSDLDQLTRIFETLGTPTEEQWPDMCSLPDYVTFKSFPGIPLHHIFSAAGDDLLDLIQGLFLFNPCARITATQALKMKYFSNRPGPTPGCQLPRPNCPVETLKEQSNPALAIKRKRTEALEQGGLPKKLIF
Sequence (P51946 whole entry partner): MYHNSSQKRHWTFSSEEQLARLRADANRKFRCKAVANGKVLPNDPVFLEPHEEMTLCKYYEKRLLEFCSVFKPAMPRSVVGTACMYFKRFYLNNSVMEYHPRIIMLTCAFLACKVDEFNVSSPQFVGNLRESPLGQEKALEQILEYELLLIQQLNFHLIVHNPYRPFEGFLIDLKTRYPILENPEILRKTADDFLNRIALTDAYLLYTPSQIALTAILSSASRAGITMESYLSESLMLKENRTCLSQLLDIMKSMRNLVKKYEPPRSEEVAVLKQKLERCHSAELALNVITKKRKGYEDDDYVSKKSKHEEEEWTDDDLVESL
Sequence (P51948 whole entry partner): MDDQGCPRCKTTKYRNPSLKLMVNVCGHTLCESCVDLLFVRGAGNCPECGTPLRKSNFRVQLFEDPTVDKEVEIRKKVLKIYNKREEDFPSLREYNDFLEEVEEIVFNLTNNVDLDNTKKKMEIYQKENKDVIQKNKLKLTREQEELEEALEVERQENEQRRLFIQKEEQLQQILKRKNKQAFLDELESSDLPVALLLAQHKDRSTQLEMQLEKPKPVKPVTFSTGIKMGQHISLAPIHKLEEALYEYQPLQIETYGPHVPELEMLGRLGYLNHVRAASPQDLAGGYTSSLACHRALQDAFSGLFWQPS
experimental_endpoint: kinact (s⁻¹)

> print(dat)
                                    compound  experimental.endpoint  reported.value
 1  C=CC(=O)N1CC(c2ncc(-c3cc(C)c4c(c3)Nc3nccc(C5CCOCC5)c3CO4)cn2)C1                 kinact        4.23e-05
 2  C#Cc1cc2c(cc1C1CCN(C3CN(C(=O)C=C)C3)CC1)Nc1nccc(C3CCOCC3)c1CO2                 kinact        8.13e-05
 3  CC#CC(=O)N1CC[C@H](N2CC(c3cc4c(c(C5CC5)n3)OCc3c(N5CCOCC5)ccnc3N4)C2)C1 (single isomer, unassigned)                 kinact        2.87e-05
 4  C=CC(=O)N1CC(N2CCC(c3cc(Cl)c4c(c3)Nc3nccc(N5CCS(=O)(=O)CC5)c3CO4)CC2)C1                 kinact        8.56e-05
 5  CC#CC(=O)N1CC[C@H](N2CCC(c3cc4c(c(C)n3)OCc3c(-c5cnn(C)c5)ccnc3N4)CC2)C1 (single isomer, unassigned)                 kinact        4.09e-05
 6  C=CC(=O)N1CC(N2CCC(c3ccc4c(c3)Nc3nccc(N5CCOC[C@@H]5C)c3CO4)CC2)C1                 kinact        7.59e-05
 7  CC#CC(=O)N1CC(N2CCC(c3cc(C#N)c4c(c3)Nc3nccc(N5CCOCC5)c3[C@H](C)O4)CC2)C1 (single isomer, unassigned)                 kinact        3.46e-05
 8  C=CC(=O)N1CC[C@H](N2CCC(c3ccc4c(c3)Nc3ncc(F)c(N5CCOCC5)c3CO4)CC2)C1 (single isomer, unassigned)                 kinact        7.49e-05
 9  C=CC(=O)N1CC[C@H](N2CC(c3cc4c(c(C)n3)OCc3c(-c5cnn(C)c5)ccnc3N4)C2)C1 (single isomer, unassigned)                 kinact        3.63e-05
10  C=CC(=O)N1CC(N2CCC(c3cc4c(c(C(N)=O)c3)OCc3c(C5CCOCC5)ccnc3N4)CC2)C1                 kinact        7.68e-05
11  C=CC(=O)N1CC(N2CCC(c3cc(C)c4c(c3)Nc3nccc(C5CCS(=O)(=O)CC5)c3CO4)CC2)C1                 kinact        6.94e-05
12  C=CC(=O)N1CC[C@@H](N2CC(c3cc(C)c4c(c3)Nc3nccc(N5CCOCC5)c3CO4)C2)C1 (single isomer, unassigned) [Compound 149]                 kinact        6.66e-05
13  C=CC(=O)N1CC(N2CC(c3cc4c(c(P(C)(C)=O)n3)OCc3c(N5CCOCC5)ccnc3N4)C2)C1                 kinact        6.25e-05
